Tested on: BT-549 breast
Experiment: NCI tumour cell line growth inhibition, 48 h; in the data active = GI50 below about 0.43 µM; inactive = the rest
*1 amine or outer side, *2 acyl side, *3 side chain or, on linkers, in order; H or OH if unused. Where a SMILES comes first, the peptide text is derived from it. [ ]: non-standard residue; d: D form. ξ: configuration not given here. X21 = CC[C@@H](C)C(N[*:1])C(=O)[*:2]; ξR = N=C(N)NCCCC(N)C(=O)O; ξI = CCC(C)C(N)C(=O)O; ξL = CC(C)CC(N)C(=O)O; ξK = NCCCCC(N)C(=O)O; ξV = CC(C)C(N)C(=O)O; ξA = CC(N)C(=O)O
Pick one: 1 (active), -1 (inactive)

C=C1C(=O)O[C@H]2[C@H]1CC/C(Cn1cc(-c3cc(C)c(C)cc3C)nn1)=C\CC[C@@]1(C)O[C@@H]21    -1
N#Cc1c(N)nc(N2CCOCC2)c(C#N)c1-c1ccccc1Cl    -1
COc1ccc(-c2csc(NC(=O)c3cc(O)c(O)c(O)c3)n2)cc1    -1
NC1=Nc2cc(OCCCN3Cc4ccccc4C3)c(OCC3CC3)cc2C12CCCC2    -1

Task: Status in this test for OCC(O)C(O)C(O)/C=N/Nc1nc2ccccc2nc1-c1ccccc1 (stereo unspecified) ?
Output: -1

Task: State the result this test recorded for CCOC(=O)c1cc(C(=O)c2cc(OC)c(OC)c(OC)c2)n2ccccc12 .
Output: 1

Task: Which outcome was assigned to CCC(C)C1NC(=O)C(CC(C)C)NC(=O)C(C)NC(=O)C(C(C)C)NC(=O)C(CCCCN)NC(=O)C(CC(C)C)NC(=O)C(C(C)C)NC(=O)[C@H](C)NC(=O)C(C(C)CC)NC(=O)C(CCCN=C(N)N)NC(=O)C(CCCCN)NC(=O)C(CCCN=C(N)N)NC(=O)C(CCCCN)NC(=O)C([C@H](C)CC)NC(=O)C(CCCCN)NC1=O (stereo partly specified) (cyclo(A[ξV][ξL][ξK][ξV][ξA][ξL][ξI][ξK][X21][ξK][ξR][ξK][ξR][ξI])) in this test?
Output: -1

Task: State the result this test recorded for COc1ccc2c(c1)/C(=C/c1cc(OC)c(OC)c(OC)c1)C(=O)N2C .
Output: -1

Task: Dear colleague, could you share the recorded outcome for COc1cc(/C=C2\C(=O)Nc3cccc(Cl)c32)cc(OC)c1OC when you have a moment?
Output: -1

Task: What is the recorded call for this compound in the test? N#Cc1ccc2c(c1)C(=O)c1c-2n(CCCN)c(=O)c2cc([N+](=O)[O-])ccc12
Output: -1
